Catalogue of compounds with associated pIC50
Target or system: UniProt:Q9Y5Y9
Assay details: SyncroPatch384PE assay (automated patch clamp)
Format: cell-based
Assay setup: inactivated state block (P2 measurement), human Nav1.8/b3 CHO cells, read-out: P2 IC50
pIC50: −log10 of the molar value. Where a name gives a salt, the structure may show the parent alone.

Previously resolved entries follow.
Cc1c(-c2cnn(C)c2)cnc(N2CCCC(F)(F)CC2)c1C(=O)Nc1cccc([S@@](C)(=O)=NC(=O)C2(N)CC2)c1 [Example 53, formate]    7.30 to 8.30
Cc1c(-c2cnn(C)c2)cnc(N2CCCC(F)(F)CC2)c1C(=O)NC12CC(C(N)=O)(C1)C2 [Example 132]    < 6.70
Cc1c(C#CCN(C)C)cnc(N2CCCC(F)(F)CC2)c1C(=O)Nc1cccc([S@](C)(=N)=O)c1 [Example 124]    6.70 to 7.00

Measured pIC50, Cc1c(C(F)(F)F)nnc(N2CCCC(F)(F)CC2)c1C(=O)Nc1ccnnc1 [Example 31] : < 6.70

* * *

Target or system: UniProt:Q9Y5Y9
Assay details: SyncroPatch384PE assay (automated patch clamp)
Assay type: cell-based
Assay setup: resting state block (P1 measurement), human Nav1.8/b3 CHO cells, read-out: P1 IC50
Counter-ions that a name gives are not always drawn.
Catalogue of compounds with associated IC50

Previously resolved entries follow.
Cc1c(-c2cnn(C(F)F)c2)cnc(N2CCCC(F)(F)CC2)c1C(=O)Nc1cccc([S@](C)(=N)=O)c1 [Example 159]    5 to 50 nM
O=C(Nc1cc[nH]c(=O)c1)c1nnc(C(F)(F)F)cc1N1CCCCCC1 [Example 36]    > 200 nM
Cc1c(-c2cnn(C)c2)cnc(N2CCCC(F)(F)CC2)c1C(=O)Nc1cccc([S@@](C)(=O)=NC(=O)C(C)(C)N)c1 [Example 52, formate]    5 to 50 nM
Cc1c(C(F)(F)F)cnc(N2CCCC(F)(F)CC2)c1C(=O)Nc1cccc([S@@](C)(=O)=NC(=O)[C@@H](C)O)c1 [Example 193]    ≤ 5 nM
CS(=N)(=O)c1cccc(NC(=O)c2cc(C(F)(F)F)nnc2N2CCC3(CC2)CC3)c1 (stereo not shown) [Example 14]    > 200 nM

Case Cc1ncc(-c2cnc(N3CCCC(F)(F)CC3)c(C(=O)Nc3cccc([S@](C)(=N)=O)c3)c2C)o1 [Example 178] , UniProt:Q9Y5Y9, IC50 recorded as 5 to 50 nM

Case Cc1c(-c2ccccn2)cnc(N2CCCC(F)(F)CC2)c1C(=O)Nc1cccc(S(C)(=N)=O)c1 (stereo not shown) [Example 99] , UniProt:Q9Y5Y9, IC50 recorded as 100 to 200 nM

* * *

Catalogue of compounds with associated pIC50
Target or system: human Nav1.8 (Homo sapiens)
Assay details: SyncroPatch384PE assay (automated patch clamp)
Format: cell-based
Assay setup: inactivated state block (P2 measurement), human Nav1.8/b3 CHO cells, read-out: P2 IC50
pIC50: −log10 of the molar value.

Previously resolved entries follow.
Cc1nc(N2CCCC(F)(F)CC2)c(C(=O)Nc2cccc([S@](C)(=N)=O)c2)cc1C(F)(F)F    ≥ 8.30
Cc1c(-c2ccccc2F)cnc(N2CCCC(F)(F)CC2)c1C(=O)Nc1cccc(S(C)(=N)=O)c1 (stereo not shown)    ≥ 8.30
Cc1c(Cl)c(C(F)(F)F)nc(N2CCCC(F)(F)CC2)c1C(=O)Nc1cccc([S@](C)(=N)=O)c1    ≥ 8.30
CS(=N)(=O)c1cccc(NC(=O)c2ccc(CC3CC3)nc2N2CCC3(CC2)CC3)c1 (stereo not shown)    7.30 to 8.30
Cc1c(-c2ccc3c(c2)OCCO3)cnc(N2CCCC(F)(F)CC2)c1C(=O)Nc1cccc([S@](C)(=N)=O)c1    7.30 to 8.30
Cc1cc(C(F)(F)F)nc(N2CCCC(F)(F)CC2)c1C(=O)Nc1cccc([S@@](C)(=N)=O)c1    ≥ 8.30

Continue with the compound presented below.
Measured pIC50, Cc1nc(N2CCCC(F)(F)CC2)c(C(=O)Nc2ccnc(S(=N)(N)=O)c2)cc1C(F)(F)F (stereo not shown) : ≥ 8.30

* * *

Target or system: UniProt Q9Y5Y9
Assay details: Sophion Qpatch II assay (automated patch clamp)
Format: cell-based
Assay setup: resting state block (TP1 measurement), human Nav1.8 HEK293 cells, read-out: P1 IC50
pIC50: −log10 of the molar value.
Measurement name: pIC50

Previously resolved entries follow.
C[S@](=N)(=O)c1cc(NC(=O)c2cc(Cl)c(C(F)(F)F)cc2N2CCC(F)(F)CC2)ccn1 [Example 247]    6.70 to 7.00
NC(=O)[C@H]1C[C@H](NC(=O)c2cc(Cl)c(C(F)(F)F)cc2N2CCCC(F)(F)CC2)C1 [Example 252]    7.00 to 7.30
C[S@](=N)(=O)c1cc(NC(=O)c2cc(Cl)c(C(F)(F)F)cc2N2CCC(F)(F)CC2)ccc1F [Example 249]    7.00 to 7.30

Measured pIC50, Cc1c(C(F)(F)F)cnc(N2CCO[C@H](C(F)(F)F)C2)c1C(=O)Nc1ccnc([S@](C)(=N)=O)c1 [Example 237] : 7.00 to 7.30

Measured pIC50, Cc1c(C(=O)Nc2ccnc([S@](C)(=N)=O)c2)c(N2CCCC(F)(F)CC2)cc(C2CC2)c1C(F)(F)F [Example 250] : ≥ 8.30

Measured pIC50, Cc1c(C(F)(F)F)cnc(N2CCCC(F)(F)CC2)c1C(=O)N[C@H]1C[C@H](C(N)=O)C1 [Example 257] : 7.00 to 7.30

Measured pIC50, C[S@@](=N)(=O)c1cc(NC(=O)c2cc(Cl)c(C(F)(F)F)cc2N2CCC(F)(F)CC2)ccn1 [Example 248] : 7.00 to 7.30

Measured pIC50, C[S@@](=N)(=O)c1cccc(NC(=O)c2cc(Cl)c(C(F)(F)F)cc2N2CCC(F)(F)CC2)c1 [Example 222] : 7.30 to 8.30

Measured pIC50, Cc1c(C(F)(F)F)cnc(N2CCCC(F)(F)CC2)c1C(=O)N[C@H]1C[C@@H](C(N)=O)C1 [Example 259] : 7.00 to 7.30

Measured pIC50, Cc1c(C(F)(F)F)cnc(N2CCO[C@@H](C(F)(F)F)C2)c1C(=O)Nc1cccc([S@](C)(=N)=O)c1 [Example 238] : < 6.70

Measured pIC50, Cc1c(C(=O)Nc2ccnc([S@@](C)(=N)=O)c2)c(N2CCCC(F)(F)CC2)nc(C2CC2)c1C(F)(F)F [Example 221] : 7.30 to 8.30

Measured pIC50, C[S@](=N)(=O)c1cc(NC(=O)c2cc(Cl)c(C(F)(F)F)cc2N2CCC(C(F)(F)F)CC2)ccn1 [Example 244] : 7.00 to 7.30

Measured pIC50, C[S@](=N)(=O)c1cc(NC(=O)c2cc(Cl)c(C(F)(F)F)cc2N2CCC(C(F)(F)F)CC2)ccc1F [Example 246] : 7.00 to 7.30

Measured pIC50, C[S@@](=N)(=O)c1cc(NC(=O)c2cc(Cl)c(C(F)(F)F)cc2N2CCC(C(F)(F)F)CC2)ccc1F [Example 245] : 7.30 to 8.30

* * *

Target or system: human Nav1.8 (Homo sapiens, UniProt Q9Y5Y9)
Sequence (Q9Y5Y9 whole entry): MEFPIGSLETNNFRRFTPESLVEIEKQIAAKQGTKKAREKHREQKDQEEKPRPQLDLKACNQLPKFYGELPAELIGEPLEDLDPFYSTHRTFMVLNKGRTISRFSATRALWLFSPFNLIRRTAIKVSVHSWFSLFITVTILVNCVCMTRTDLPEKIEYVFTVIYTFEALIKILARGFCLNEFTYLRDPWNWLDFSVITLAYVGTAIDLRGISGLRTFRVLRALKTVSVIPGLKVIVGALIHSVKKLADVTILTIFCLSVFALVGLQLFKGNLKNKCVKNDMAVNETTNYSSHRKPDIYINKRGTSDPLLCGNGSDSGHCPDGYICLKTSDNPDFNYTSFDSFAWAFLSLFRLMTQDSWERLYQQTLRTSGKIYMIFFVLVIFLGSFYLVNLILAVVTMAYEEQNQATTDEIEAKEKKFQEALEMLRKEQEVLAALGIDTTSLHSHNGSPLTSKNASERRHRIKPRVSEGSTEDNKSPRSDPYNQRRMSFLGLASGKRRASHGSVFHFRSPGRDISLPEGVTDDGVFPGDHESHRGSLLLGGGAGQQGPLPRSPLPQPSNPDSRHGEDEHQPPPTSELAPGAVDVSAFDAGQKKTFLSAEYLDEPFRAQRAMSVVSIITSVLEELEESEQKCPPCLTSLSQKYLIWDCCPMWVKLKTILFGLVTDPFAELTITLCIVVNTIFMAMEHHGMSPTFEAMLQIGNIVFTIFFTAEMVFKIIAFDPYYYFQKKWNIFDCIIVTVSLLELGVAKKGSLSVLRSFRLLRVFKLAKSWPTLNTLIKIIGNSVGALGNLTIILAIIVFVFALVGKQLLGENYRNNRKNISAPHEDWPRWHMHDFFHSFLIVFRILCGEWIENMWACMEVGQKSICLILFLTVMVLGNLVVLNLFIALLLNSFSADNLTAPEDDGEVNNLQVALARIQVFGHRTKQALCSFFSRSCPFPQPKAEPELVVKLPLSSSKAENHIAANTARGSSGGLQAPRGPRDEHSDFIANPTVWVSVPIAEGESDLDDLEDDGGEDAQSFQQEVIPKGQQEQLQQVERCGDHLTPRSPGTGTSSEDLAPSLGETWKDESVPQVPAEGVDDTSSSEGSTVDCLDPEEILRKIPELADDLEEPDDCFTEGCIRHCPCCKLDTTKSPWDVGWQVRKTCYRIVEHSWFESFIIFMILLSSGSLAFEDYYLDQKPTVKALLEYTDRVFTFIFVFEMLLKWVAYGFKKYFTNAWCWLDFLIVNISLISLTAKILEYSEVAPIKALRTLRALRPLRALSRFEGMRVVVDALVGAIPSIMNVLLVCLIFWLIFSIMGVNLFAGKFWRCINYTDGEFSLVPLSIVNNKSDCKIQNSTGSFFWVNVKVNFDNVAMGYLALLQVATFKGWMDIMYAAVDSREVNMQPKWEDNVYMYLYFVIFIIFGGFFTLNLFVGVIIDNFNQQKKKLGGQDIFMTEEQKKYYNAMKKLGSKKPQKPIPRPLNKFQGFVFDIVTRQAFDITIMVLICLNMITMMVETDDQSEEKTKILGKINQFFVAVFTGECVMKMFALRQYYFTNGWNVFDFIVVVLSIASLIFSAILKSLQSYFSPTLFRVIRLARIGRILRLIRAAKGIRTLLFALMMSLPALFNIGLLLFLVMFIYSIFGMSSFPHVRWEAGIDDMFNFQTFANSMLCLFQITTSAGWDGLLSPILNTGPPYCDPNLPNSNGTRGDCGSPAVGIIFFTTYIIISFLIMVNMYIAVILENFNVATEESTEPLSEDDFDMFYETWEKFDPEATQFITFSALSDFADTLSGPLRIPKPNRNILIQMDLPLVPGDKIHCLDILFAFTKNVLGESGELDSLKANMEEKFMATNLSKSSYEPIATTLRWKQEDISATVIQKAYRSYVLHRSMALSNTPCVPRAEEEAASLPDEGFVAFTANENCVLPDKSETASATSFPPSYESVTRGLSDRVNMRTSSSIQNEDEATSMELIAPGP
Assay details: SyncroPatch384PE assay (automated patch clamp)
Format: cell-based
Assay setup: inactivated state block (P2 measurement), human Nav1.8/b3 CHO cells, read-out: P2 IC50
Measurement name: IC50

Previously resolved entries follow.
Cc1c(-c2ccc(Cl)c(F)c2)cnc(N2CCCC(F)(F)CC2)c1C(=O)Nc1cccc([S@](C)(=N)=O)c1    ≤ 5 nM
CNCCN=[S@](C)(=O)c1cccc(NC(=O)c2c(N3CCCC(F)(F)CC3)ncc(Br)c2C)c1 [Example 211, 2,2,2-trifluoroacetate]    ≤ 5 nM
CS(=N)(=O)c1cccc(NC(=O)c2nnc(C(F)(F)F)cc2N2CCCCCC2)c1 (stereo not shown)    > 200 nM
Cc1c(-c2cnn(C)c2)cnc(N2CCCC(F)(F)CC2)c1C(=O)Nc1ccc(F)c([S@@](C)(=N)=O)c1    100 to 200 nM
NC(=O)c1cccc(NC(=O)c2nnc(C(F)(F)F)cc2N2CCCC(F)(F)CC2)c1    > 200 nM
Cc1c(-c2ccccc2)cnc(N2CCCC(F)(F)CC2)c1C(=O)Nc1cccc([S@](C)(=N)=O)c1    ≤ 5 nM

Continue with the compound presented below.
Measured IC50, Cc1c(-c2cnn(C)c2)nnc(N2CCCC(F)(F)CC2)c1C(=O)NC12CC(C(N)=O)(C1)C2 : ≤ 5 nM

* * *

Target or system: human Nav1.8 (Homo sapiens)
Assay details: SyncroPatch384PE assay (automated patch clamp)
Assay type: cell-based
Assay setup: inactivated state block (P2 measurement), human Nav1.8/b3 CHO cells, read-out: P2 IC50
pIC50: −log10 of the molar value.
Catalogue of molecules with associated pIC50

Previously resolved entries follow.
CS(=N)(=O)c1cc(NC(=O)c2cc(C(F)(F)F)nnc2N2CCCCCC2)ccn1 (stereo not shown)    < 6.70
CNCC(=O)N=[S@](C)(=O)c1cccc(NC(=O)c2c(N3CCCC(F)(F)CC3)ncc(-c3cnn(C4CC4)c3)c2C)c1    ≥ 8.30
Cc1ccc(-c2cnc(N3CCCC(F)(F)CC3)c(C(=O)Nc3cccc(S(C)(=N)=O)c3)c2C)cc1 (stereo not shown)    ≥ 8.30
C[S@@](=N)(=O)c1cc(NC(=O)c2cc(Cl)c(C(F)(F)F)cc2N2CCCC(F)(F)CC2)ccn1    ≥ 8.30
Cc1c(C(F)(F)F)cnc(N2CCCC(F)(F)CC2)c1C(=O)Nc1cccc([S@@](C)(=O)=NC(=O)[C@H](C)O)c1    ≥ 8.30
Cc1c(C#N)cnc(N2CCCC(F)(F)CC2)c1C(=O)NC12CC(C(N)=O)(C1)C2    ≥ 8.30

Measured pIC50, Cc1c(-c2cnn(C)c2)nnc(N2CCCC(F)(F)CC2)c1C(=O)Nc1cccc([S@](C)(=N)=O)c1 : < 6.70
